- System: [Candida] sake
- METHOD DESCRIPTION: Antifungal activity against 2 strains of Candida sake after 24 hrs by […]
- Assay type: functional
- CONDITIONS USED: Fermentozyma sake
For each of the molecules below, state its MIC.
Hi! Could you send only the number? It should be in µg/mL, unit omitted.

Provide measured MIC value, entry: `Ic1ccc(-c2csc(N/N=C/c3c[nH]c4ccccc34)n2)cc1` 4

Provide measured MIC value, entry: `C/C(=N\Nc1nc(-c2ccc(I)cc2)cs1)c1cc2ccccc2oc1=O` 4

Provide measured MIC value, entry: CC1CCC(=NNc2nc(-c3ccc(I)cc3)cs2)CC1 (stereo unspecified) 64

Provide measured MIC value, entry: `Ic1ccc(-c2csc(NN=C3CCCC3)n2)cc1` 32

Provide measured MIC value, entry: `Ic1ccc(-c2csc(NN=C3CCCCCC3)n2)cc1` 64

Provide measured MIC value, entry: `CCCCC/C(C)=N/Nc1nc(-c2ccc(I)cc2)cs1` 32

====

For each of the compounds below, state its MIC.
- Test system: Klebsiella aerogenes
- METHOD DESCRIPTION: Antibacterial activity against Enterobacter aerogenes after 18 to 22 hrs by […]
- Type: functional

Provide measured MIC value, entry: `C/C(=N\Nc1nc(-c2ccc(I)cc2)cs1)c1cccs1` > 128 µg/mL

Provide measured MIC value, entry: `Ic1ccc(-c2csc(NN=C3CCCCC3)n2)cc1` > 128 µg/mL

Provide measured MIC value, entry: `C/C(=N\Nc1nc(-c2ccc(I)cc2)cs1)c1ccccn1` > 128 µg/mL

Provide measured MIC value, entry: `CCCCC/C(C)=N/Nc1nc(-c2ccc(I)cc2)cs1` > 128 µg/mL

Provide measured MIC value, entry: `Ic1ccc(-c2csc(N/N=C/c3c[nH]c4ccccc34)n2)cc1` > 128 µg/mL

Provide measured MIC value, entry: `Ic1ccc(-c2csc(NN=C3CCCCCC3)n2)cc1` 16 µg/mL

Provide measured MIC value, entry: `C/C(=N\Nc1nc(-c2ccc(I)cc2)cs1)c1cccnc1` > 128 µg/mL

Provide measured MIC value, entry: `CCC/C(C)=N/Nc1nc(-c2ccc(I)cc2)cs1` > 128 µg/mL

Provenance of the data: ChEMBL document CHEMBL2034842
